The reader will find reported relative IC50 values listed item by item below.
# Tested on: T-47D
# method.summary: relative IC50 (midpoint of fitted logistic curve, plateau may be below 50% inhibition; CellTiter-Glo viability); higher = less potent
# condition.details: 4-OH-tamoxifen in medium 1 µM; 72 h
Counter-ions that a name gives are not always drawn.

compound	assay.system	relative IC50
O=C(c1ccc(OCCN2CCCCC2)cc1)c1c(-c2ccc(O)cc2)sc2cc(O)ccc12 [Raloxifene HCl]	T-47D	> 10 µM
CCN(CC)CCCC(C)Nc1ccnc2cc(Cl)ccc12 (centres undefined)	T-47D	> 990 µM
CC(C)c1c(C(=O)Nc2ccccc2)c(-c2ccccc2)c(-c2ccc(F)cc2)n1CC[C@@H](O)C[C@@H](O)CC(=O)O	T-47D	3.21 µM
O=P(O)(NCCCl)NCCCl [Ifosfamide mustard]	T-47D	> 10 µM
Cn1c(Nc2ccc(C(F)(F)F)cc2)nc2cc(Oc3ccnc(-c4ncc(C(F)(F)F)[nH]4)c3)ccc21	T-47D	> 1 µM
COc1cccc2c1C(=O)c1c(O)c3c(c(O)c1C2=O)C[C@@](O)(C(=O)CO)C[C@@H]3O[C@H]1C[C@H](N)[C@H](O)[C@H](C)O1	T-47D	0.396 µM
O=c1[nH]cc(F)c(=O)[nH]1	T-47D	> 10 µM
Cc1ccc(Nc2nccc(N(C)c3ccc4c(C)n(C)nc4c3)n2)cc1S(N)(=O)=O	T-47D	> 10 µM
O=C(/C=C/c1cccnc1)NCCCCC1CCN(C(=O)c2ccccc2)CC1 [Daporinad (FK-866 HCl)]	T-47D	0.0132 µM
N[C@@H](CSC(c1ccccc1)(c1ccccc1)c1ccccc1)C(=O)O	T-47D	> 40 µM
Cn1cc(C2=C(c3cn(C4CCN(Cc5ccccn5)CC4)c4ccccc34)C(=O)NC2=O)c2ccccc21	T-47D	> 10 µM
Cn1cnc2c(F)c(Nc3ccc(Br)cc3F)c(C(=O)NOCCO)cc21	T-47D	> 1 µM
Cc1c(N)nc([C@H](CC(N)=O)NC[C@H](N)C(N)=O)nc1C(=O)N[C@H](C(=O)N[C@H](C)[C@@H](O)[C@H](C)C(=O)N[C@H](C(=O)NCCc1nc(-c2nc(C(=O)NCCC[S+](C)C)cs2)cs1)[C@@H](C)O)[C@@H](OC1OC(CO)C(O)C(O)C1OC1OC(CO)C(O)C(OC(N)=O)C1O)c1cnc[nH]1 (some centres undefined)	T-47D	> 10 µM
C[C@]12CC[C@@H]3c4ccc(OC(=O)N(CCCl)CCCl)cc4CC[C@H]3[C@@H]1CC[C@@H]2O	T-47D	> 990 µM
COc1cc(Nc2c(C#N)cnc3cc(OCCCN4CCN(C)CC4)c(OC)cc23)c(Cl)cc1Cl	T-47D	3.38 µM
COc1cc2c(cc1O)CC[C@@H]1[C@@H]2CC[C@]2(C)[C@@H](O)CC[C@@H]12	T-47D	> 10 µM
O=C1c2c(O)ccc(O)c2C(=O)c2c(NCCNCCO)ccc(NCCNCCO)c21	T-47D	> 1 µM
Cc1ccc(-n2nc(C(C)(C)C)cc2NC(=O)Nc2ccc(OCCN3CCOCC3)c3ccccc23)cc1	T-47D	> 10 µM
CC(=O)OC[C@H]1O[C@@H]([S-])[C@H](OC(C)=O)[C@@H](OC(C)=O)[C@@H]1OC(C)=O.CCP(CC)CC.[Au+]	T-47D	0.223 µM
CO[C@H]1/C=C\C=C(/C)C(=O)NC2=CC(=O)C(NCCN(C)C)=C(C[C@@H](C)C[C@H](OC)[C@H](O)[C@@H](C)/C=C(\C)[C@@H]1OC(N)=O)C2=O	T-47D	0.142 µM
Cc1cc2c(F)c(Oc3ncnn4cc(OC[C@@H](C)O)c(C)c34)ccc2[nH]1	T-47D	> 1 µM
Nc1nc(Cl)nc2c1ncn2[C@H]1C[C@H](O)[C@@H](CO)O1	T-47D	> 1 µM
N#CC[C@H](C1CCCC1)n1cc(-c2ncnc3[nH]ccc23)cn1	T-47D	> 10 µM
CN1CCN(c2ccc3nc(-c4c(N)c5c(F)cccc5[nH]c4=O)[nH]c3c2)CC1	T-47D	> 10 µM
S=P(N1CC1)(N1CC1)N1CC1	T-47D	> 100 µM
c1cc(CN2CCCNCCNCCCNCC2)ccc1CN1CCCNCCNCCCNCC1	T-47D	> 2.5 µM
O=C(NC[C@H](O)CO)c1ccncc1Nc1ccc(I)cc1F	T-47D	> 10 µM
CCC/C=C/C=C/C(=O)O[C@H]1/C(=C/C(=O)OC)C[C@H]2C[C@H]([C@@H](C)O)OC(=O)C[C@H](O)C[C@@H]3C[C@H](OC(C)=O)C(C)(C)[C@](O)(C[C@@H]4C/C(=C/C(=O)OC)C[C@H](/C=C/C(C)(C)[C@]1(O)O2)O4)O3	T-47D	> 0.1 µM
Cc1ccc(-c2cc(C(F)(F)F)nn2-c2ccc(S(N)(=O)=O)cc2)cc1	T-47D	> 10 µM

Reference for the values: the supplement of paper PMC4932681
